B1: Chromodomain-helicase-DNA-binding protein 5, residues 338 to 390; numbered along this chain, Q8TDI0 (parent)
chain: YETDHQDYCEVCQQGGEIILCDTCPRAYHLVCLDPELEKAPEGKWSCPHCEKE

- Variants of: B1
- assay: abundance fitness (aPCA) (normalised: wild type 0, dead -1); higher = more abundant; growth selection in yeast, the domain comes from the species named
- condition set: Homo sapiens
Record fulfilled whenever abundance fitness is at -0.09 or higher; record not fulfilled when lower.

P48M :: fulfilled
A27Y :: not fulfilled
Y28D :: not fulfilled
H29Y :: not fulfilled

Is reported abundance fitness greater than or equal to -0.09 here: G43H
fulfilled

Would you mind doing C21F as well?
not fulfilled

Would you mind doing E53Y as well?
not fulfilled

Would you mind doing A27P as well?
not fulfilled

Would you mind doing W45L as well?
not fulfilled

Would you mind doing D34N as well?
not fulfilled

Would you mind doing I18H as well?
fulfilled

Would you mind doing G16S as well?
fulfilled

Would you mind doing T23L as well?
fulfilled

Would you mind doing G43L as well?
not fulfilled

Would you mind doing A40D as well?
not fulfilled

Would you mind doing L20H as well?
fulfilled

Would you mind doing A40I as well?
fulfilled

Would you mind doing S46G as well?
fulfilled

Would you mind doing D34G as well?
not fulfilled

Would you mind doing E17C as well?
not fulfilled

Would you mind doing L33S as well?
fulfilled

Would you mind doing P48W as well?
fulfilled
